Tested on: HCT-116 colon
protocol_summary: NCI tumour cell line growth inhibition, 48 h; in the data active = GI50 below about 0.43 µM; inactive = the rest
Entry note: the call must match one of active, inactive

Record excerpt, results attached:
[
  {
    "compound": "COc1ccc2c(c1OC)CO[C@@H]2[C@H]1c2c(c(Br)c3c(c2OC)OCO3)CCN1C",
    "measurement_target": "HCT-116 colon",
    "assigned_label": "inactive"
  },
  {
    "compound": "Cn1cc(C2=C(c3c4n(c5ccccc35)CCN(C(N)=S)C4)C(=O)NC2=O)c2ccccc21",
    "measurement_target": "HCT-116 colon",
    "assigned_label": "inactive"
  },
  {
    "compound": "N=C1S/C(=C/c2ccc(-c3ccc4c(c3)C(=O)NC4=O)o2)C(=O)N1c1ccc(Br)cc1",
    "measurement_target": "HCT-116 colon",
    "assigned_label": "inactive"
  }
]

[Q] Please share the test call associated with Nc1c(C(=O)Nc2ccccn2)sc2nc3c(cc12)CCCCC3 .
[A] inactive

[Q] Please share the test call associated with O=C(NC1CCC(Br)CC1)C1CCCC(S(=O)(=O)NC2CCCCC2)C1 (stereo not drawn) .
[A] inactive

[Q] Kindly provide the recorded test outcome for the following compound: COc1cc2c(cc1OCCCCCN1CCN(c3cc(=O)oc4ccccc34)CC1)N=C[C@@H]1CCCN1C2=O
[A] active
